Measured values drawn from patent US20170101521A1 for this set.

# test-summary: Base generation temperature by differential scanning calorimetry
# Assay type: physicochemical
# condition: DSC, heated to 250° C. at 5° C./min in pressure-resistant capsule; peak temperature of lowest exothermic peak
metric: Base generation temperature (°C)

Check out these entries, answers already filled in.
CCCCCC[N+](C)(C)CC(=O)c1ccccc1.O=C([O-])/C=C\C(=O)O | 150
CC(C)(c1ccc(N(CC(=O)O)CC(=O)O)cc1)c1ccc(N(CC(=O)O)CC(=O)O)cc1 | 140
C1CCC2=[N+](CC1)CCCN2.O=C([O-])C(=O)O | 80
O=C(C[N+]1=C2CCCN2CCC1)c1ccccc1.O=C([O-])C(=O)O | 140
CCCCCCCCCCCC[N+](C)(C)CC(=O)c1ccc2ccccc2c1.O=C([O-])/C=C\C(=O)O | 140
C[N+](C)(CC(=O)c1ccccc1)Cc1ccccc1.O=C([O-])/C=C\C(=O)O | 150
O=C(O)CN(CC(=O)O)c1ccc(C(F)(F)F)cc1 | 155
O=C(O)CC(Nc1ccccc1)C(=O)O (centres unmarked) | 200

[I] C[N+](C)(CC(=O)c1ccccc1)C1CCCCC1.O=C([O-])/C=C\C(=O)O
[II] CCC(O)C[N+](C)(C)[N-]C(=O)c1ccccc1OC (centres unmarked) [X-1, reference compound]
input: In terms of reported Base generation temperature, does I or II have the smaller number? Selection: enter the item's label.
output: II

* * *

# test-summary: Base generation temperature by differential scanning calorimetry
# Type: physicochemical
# condition: DSC, heated to 250° C. at 5° C./min in pressure-resistant capsule; peak temperature of lowest exothermic peak
metric: Base generation temperature (°C)

O=C(C[n+]1ccccc1)c1ccccc1.O=C([O-])C(=O)O | 140
O=C(C[N+]1=C2CCCCCN2CCC1)c1ccccc1.O=C([O-])C(=O)O | 140
O=C(O)CN(CC(=O)O)c1ccccc1 | 145
O=C(O)CN(CC(=O)O)c1ccc(Cc2ccc(N(CC(=O)O)CC(=O)O)cc2)cc1 | 145
C[n+]1ccccc1.O=C([O-])C(=O)O | 180
O=C(O)CN(CC(=O)O)c1ccc(-c2ccccc2)cc1 | 150
CC(=O)c1ccc(N(CC(=O)O)CC(=O)O)cc1 | 155
O=C(C[N+]12CCN(CC1)CC2)c1ccccc1.O=C([O-])C(=O)O | 140
Cc1ccc(N(CC(=O)O)CC(=O)O)cc1 | 140
O=C(O)CN(CC(=O)O)c1cc(C(F)(F)F)cc(C(F)(F)F)c1 | 155
C[N+]1(C)CCCCC1.O=C([O-])C(=O)O | 190

* * *

# test-summary: Base generation temperature by differential scanning calorimetry
# Type: physicochemical
# condition: DSC, heated to 250° C. at 5° C./min in pressure-resistant capsule; peak temperature of lowest exothermic peak
metric: Base generation temperature (°C)

CCCCCCCCCCCC[N+](C)(C)CC(=O)c1ccccc1.O=C([O-])C(=O)O | 150
Cc1ccc(NC(CC(=O)O)C(=O)O)cc1 (stereo not shown) | 200
C1CCC2=[N+](CC1)CCCN2.O=C([O-])CCC(=O)O | 150
C=CCN(CC(=O)O)CC(=O)O | 190
CCCCCCCC[N+](C)(C)CC(=O)c1ccccc1.O=C([O-])/C=C\C(=O)O | 150
